ASSAY_TARGET: Inward rectifier potassium channel 2 (Mus musculus)
ASSAY_TEXT: mouse Kir2.1 channel blockers, retest, confirmation, cell-based, FluxOR thallium flux, duplicate (AID 2032)
RUN_CONDITIONS: Kir2.1-expressing cells, FluxOR thallium flux fluorescence, at 10 µM
This is one part of the list. The source made the active and inactive calls.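 How the source made its calls: active means Primary-screen hit whose thallium flux fell at least 3 control SD below untreated wells in both duplicates, with normal baseline fluorescence; inactive means the rest.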
Outcomes: Yes (active), No (inactive)

>>> df
                                   molecule  group
0  c1ccc(C2NCc3ccccc3-n3cccc32)cc1 (stereo not given)    Yes
1  CNCC(O)c1cc(F)c(OCc2ccccc2)c(OCc2ccccc2)c1F (stereo not given)    Yes
2            COc1ccc(Br)cc1CNCCc1cccc(Cl)c1    Yes
3    CCOc1cccc(=NC2CCCCC2)c2c(C)[nH]c(C)c12    Yes
4  COc1cc(-n2c(=S)[nH]c3ccc(C)cc3c2=O)c(Cl)cc1Cl     No

Recorded values, source PubChem BioAssay.
